tested on: TK-10 renal; experiment: NCI tumour cell line growth inhibition, 48 h
measurement_name: TGI

smiles_text: O=S(=O)(c1ccccc1)n1c2ccc(Br)cc2c2nc3ccccc3nc21
obs_value: > 100 µM
//
smiles_text: O=C(O)CCCCCCC[C@H]1S[C@H]1CCCCCCO
obs_value: > 100 µM

# TGI of CC(=O)OCCOCn1c2c(c(=S)[nH]c1=O)CCC2 = > 100 µM

====

List of GI50 values.
test system: NCI-H522 lung; assay: NCI tumour cell line growth inhibition, 48 h

Worked examples, 2 compounds total:
smiles_text: COc1cc(NC(N)=NCCC(C)(C)Oc2ccc(C(F)(F)F)cc2)ncc1C#N
experimental_system: NCI-H522 lung
GI50: 1.47 µM
//
smiles_text: COc1cc(OC)cc(N(CCNC(C)C)c2ccc3ncc(-c4cnn(C)c4)nc3c2)c1
experimental_system: NCI-H522 lung
GI50: 7.82 µM

The reported value for CCN(Cc1cccc(F)c1)c1ccc(CO)c(Cl)c1 in terms of GI50 is 19.2 µM

Taken from PubChem BioAssay (NCI).
